Molecular target: Cannabinoid receptor 1 (Homo sapiens, UniProt P21554)
Sequence (P21554 whole entry): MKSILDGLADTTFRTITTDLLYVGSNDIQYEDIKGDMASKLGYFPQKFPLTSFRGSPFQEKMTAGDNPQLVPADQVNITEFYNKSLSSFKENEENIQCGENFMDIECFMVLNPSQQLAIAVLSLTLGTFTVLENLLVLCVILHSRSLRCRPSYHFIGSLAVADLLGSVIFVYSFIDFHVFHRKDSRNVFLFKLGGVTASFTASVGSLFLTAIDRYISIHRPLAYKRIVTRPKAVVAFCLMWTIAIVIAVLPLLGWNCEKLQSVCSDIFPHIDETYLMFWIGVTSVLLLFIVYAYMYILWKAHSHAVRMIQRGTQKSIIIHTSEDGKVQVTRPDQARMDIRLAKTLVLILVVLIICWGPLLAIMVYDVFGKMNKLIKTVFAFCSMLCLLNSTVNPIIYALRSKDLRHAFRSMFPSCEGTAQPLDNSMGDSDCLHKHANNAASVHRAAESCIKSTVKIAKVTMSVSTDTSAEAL
Assay: biochemical
Format: cell-based, CHO

- structure as smiles: "S=C(Nc1ccccc1)NC(c1ccc(Cl)cc1)c1ccc(Cl)cc1"
  target system: "Cannabinoid receptor 1 (Homo sapiens, UniProt P21554)"
  Ki: "2900 nM (antagonist)"
- structure as smiles: "S=C(Nc1ccc(Cl)cc1)NC(c1ccc(Br)cc1)c1ccc(Br)cc1"
  target system: "Cannabinoid receptor 1 (Homo sapiens, UniProt P21554)"
  Ki: "1500 nM (antagonist)"
- structure as smiles: "O=C1N(c2ccccc2)C(=S)NC1(c1ccc(Br)cc1)c1ccc(Br)cc1"
  target system: "Cannabinoid receptor 1 (Homo sapiens, UniProt P21554)"
  Ki: "3450 nM (antagonist)"
- structure as smiles: "O=C(Nc1ccc(Br)cc1)NC(c1ccc(Cl)cc1)c1ccc(Cl)cc1"
  target system: "Cannabinoid receptor 1 (Homo sapiens, UniProt P21554)"
  Ki: "1250 nM (antagonist)"

---

Biological target: Cannabinoid receptor 1 (Homo sapiens, UniProt P21554)
Test: biochemical
Assay type: cell-based, CHO
Each entry below lists one item and its recorded Ki value.
property measured: Ki

- structure as smiles: "O=C(Nc1ccccc1)NC(c1ccc(Cl)cc1)c1ccc(Cl)cc1"
  target system: "Cannabinoid receptor 1 (Homo sapiens, UniProt P21554)"
  observed result: "7050 nM (antagonist)"
- structure as smiles: "S=C(Nc1ccc(Cl)cc1)NC(c1ccc(Cl)cc1)c1ccc(Cl)cc1"
  target system: "Cannabinoid receptor 1 (Homo sapiens, UniProt P21554)"
  observed result: "1900 nM (antagonist)"
- structure as smiles: "CCCCCCC(C)(C)c1cc(O)c2c(c1)OC(C)(C)[C@H]1CC=C(CO)C[C@H]21"
  target system: "Cannabinoid receptor 1 (Homo sapiens, UniProt P21554)"
  observed result: "19 nM (antagonist)"
- structure as smiles: "O=C(Nc1ccccc1)NC(c1ccc(Br)cc1)c1ccc(Br)cc1"
  target system: "Cannabinoid receptor 1 (Homo sapiens, UniProt P21554)"
  observed result: "2900 nM (antagonist)"
- structure as smiles: "O=C(Nc1ccc(Cl)cc1)NC(c1ccc(Br)cc1)c1ccc(Br)cc1"
  target system: "Cannabinoid receptor 1 (Homo sapiens, UniProt P21554)"
  observed result: "650 nM (antagonist)"
- structure as smiles: "S=C(Nc1ccccc1)NC(c1ccc(Br)cc1)c1ccc(Br)cc1"
  target system: "Cannabinoid receptor 1 (Homo sapiens, UniProt P21554)"
  observed result: "1800 nM (antagonist)"
- structure as smiles: "O=C(Nc1ccc(Cl)cc1)NC(c1ccc(Cl)cc1)c1ccc(Cl)cc1"
  target system: "Cannabinoid receptor 1 (Homo sapiens, UniProt P21554)"
  observed result: "1100 nM (antagonist)"
- structure as smiles: "O=C1N(c2ccc(Cl)cc2)C(=S)NC1(c1ccc(Br)cc1)c1ccc(Br)cc1"
  target system: "Cannabinoid receptor 1 (Homo sapiens, UniProt P21554)"
  observed result: "2750 nM (antagonist)"
- structure as smiles: "O=C(Nc1ccc(Br)cc1)NC(c1ccc(Br)cc1)c1ccc(Br)cc1"
  target system: "Cannabinoid receptor 1 (Homo sapiens, UniProt P21554)"
  observed result: "500 nM (antagonist)"
- structure as smiles: "O=C(Nc1ccc(Br)cc1)NC(c1ccc(I)cc1)c1ccc(I)cc1"
  target system: "Cannabinoid receptor 1 (Homo sapiens, UniProt P21554)"
  observed result: "750 nM (antagonist)"
